Recorded measurements of inhibition, one per entry
- Target under test: Sphingosine kinase 1 (Homo sapiens) (UniProt Q9NYA1);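 note: mean percent inhibition of SPHK1 activity, measured within the GSK PKIS screening panel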
- Sequence (Q9NYA1 whole entry): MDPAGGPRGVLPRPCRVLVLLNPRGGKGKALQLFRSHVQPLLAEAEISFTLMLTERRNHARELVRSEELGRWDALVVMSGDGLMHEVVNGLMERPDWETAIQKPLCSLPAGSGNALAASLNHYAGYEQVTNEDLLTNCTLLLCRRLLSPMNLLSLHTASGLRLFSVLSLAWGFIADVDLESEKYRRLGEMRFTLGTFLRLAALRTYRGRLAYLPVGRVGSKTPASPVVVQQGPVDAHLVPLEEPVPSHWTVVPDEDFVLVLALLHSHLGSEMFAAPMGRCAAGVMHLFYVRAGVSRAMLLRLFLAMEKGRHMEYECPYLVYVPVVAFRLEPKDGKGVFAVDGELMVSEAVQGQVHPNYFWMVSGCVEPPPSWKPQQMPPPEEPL
- Conditions: at 0.1 µM

{"Compound": "COc1ccc(-c2cc3c(N)ncnc3o2)cc1", "inhibition / %": 9.34}
{"Compound": "CS(=O)(=O)CCNCc1ccc(-c2ccc3ncnc(Nc4ccc(OCc5ccccc5)c(C(F)(F)F)c4)c3c2)o1", "inhibition / %": 0.51}
{"Compound": "COC(=O)c1sc(-n2cnc3cc(OC)c(OC)cc32)cc1OCc1ccccc1C(F)(F)F", "inhibition / %": -3.91}
{"Compound": "CCOc1ccc2c(-c3ccnc(Nc4cccc(C(F)(F)F)c4)n3)cnn2n1", "inhibition / %": 0.68}
{"Compound": "Cc1ccc2c(-c3ccnc(Nc4ccccc4)n3)c(-c3ccc(F)cc3)nn2n1", "inhibition / %": 0}
{"Compound": "CC1=C(C(=O)Nc2cc(Cl)c3[nH]ncc3c2)C(c2ccc(C(F)(F)F)cc2)CC(=O)N1 (stereo not drawn)", "inhibition / %": 6.22}
{"Compound": "COc1cc2ncn(-c3cc(OCc4ccccc4C(F)(F)F)c(C(=O)N(C)C)s3)c2cc1OC", "inhibition / %": 2.3}
{"Compound": "NC(=O)c1sc(-n2cnc3ccc(C(F)(F)F)cc32)cc1OCc1ccccc1Br", "inhibition / %": 2.38}
{"Compound": "COc1ccc(-c2nn3ncccc3c2-c2ccnc(Nc3ccc4c(c3)OCCO4)n2)cc1", "inhibition / %": -0.35}
{"Compound": "COc1cccc(-n2ncc3c(N/N=C/c4ccc(F)cc4)ncnc32)c1", "inhibition / %": 2.72}
{"Compound": "COc1cc2c(cc1Nc1nc(Nc3ccsc3C(N)=O)c3cc[nH]c3n1)N(C(=O)CN(C)C)CCC2(C)C", "inhibition / %": 3.22}
{"Compound": "NS(=O)(=O)c1ccc(N/N=C2\\C(=O)Nc3ccc4ncccc4c32)cc1", "inhibition / %": -2.17}
{"Compound": "N#Cc1c(NC(=O)c2ccc(F)cc2)sc2c1CCCC2", "inhibition / %": -0.62}
{"Compound": "CC(=O)NCc1cccc(C#Cc2cncnc2Nc2ccc(OCc3cccc(F)c3)c(Cl)c2)c1", "inhibition / %": 2.94}
{"Compound": "COc1cc(N2CCN(C(C)C)CC2)ccc1Nc1nc(Nc2ccc(F)cc2C(N)=O)c2cc[nH]c2n1", "inhibition / %": 0.81}
{"Compound": "CCn1c(-c2nonc2N)nc2c(C#CC(C)(C)O)nc(OC[C@H](N)c3ccccc3)cc21", "inhibition / %": 0.65}
{"Compound": "Nc1nc(-c2ccc(F)cc2)c(-c2ccc3ncccc3n2)s1", "inhibition / %": 0.08}
{"Compound": "CCNC(=O)O[C@H]1CN[C@H](C#Cc2cc3ncnc(Nc4ccc(OCc5cccc(F)c5)c(Cl)c4)c3s2)C1", "inhibition / %": 0.82}
{"Compound": "CCn1c(-c2nonc2N)nc2c(C#CC(C)(C)O)ncc(OC3CCNCC3)c21", "inhibition / %": -1.2}
{"Compound": "COc1cc(Nc2nccc(Nc3ccc4c(C)n[nH]c4c3)n2)cc(OC)c1OC", "inhibition / %": -0.37}
{"Compound": "O=C(O[C@H]1CN[C@H](C#Cc2cc3ncnc(Nc4ccc(Cc5ccccc5)cc4)c3s2)C1)N1CCOCC1", "inhibition / %": 0.79}
{"Compound": "CCCN1CCC(c2ccc(Nc3nc(Nc4cc(F)ccc4C(N)=O)c4cc[nH]c4n3)c(OC)c2)CC1", "inhibition / %": -0.97}
{"Compound": "CC(C)COC(=O)c1ccc2c(c1)/C(=C/Nc1ccc(S(N)(=O)=O)cc1)C(=O)N2", "inhibition / %": 2.57}
